# Tested on: PC49
# assay.overview: qHTS profiling for inhibitors of Plasmodium falciparum proliferation (AID 504749); also: nearly all actives have a fitted effect of over 60% in size
# condition.details: P. falciparum in erythrocytes, SYBR Green DNA, 72 h; series mostly up to 28.7 µM
Results filed as inconclusive are left out. Activity calls are given as the source filed them. Calls follow the shape of the dose curve; as a rule, active = well fitted inhibition curve with a large enough effect; inconclusive = small, poorly fitted or top-dose-only effect; inactive = flat fitted curve, though single readings scatter.
Allowed answers: true (1) = active, false (0) = inactive

**Query** GET /call?item= `F[Si-2](F)(F)(F)(F)F` returns the recorded outcome of this test.
**Result** false (0)

**Query** GET /call?item= CC1CC(OC(=O)C(O)c2ccccc2)CC(C)(C)C1 (stereo not drawn) returns the recorded outcome of this test.
**Result** false (0)

**Query** GET /call?item= CC(CNC(=O)c1cccnc1)NC(=O)c1cccnc1 (stereo not drawn) returns the recorded outcome of this test.
**Result** false (0)

Further cases:
**Query** GET /call?item= `Cc1ncc(COP(=O)(O)O)c(CN)c1O` returns the recorded outcome of this test.
**Result** false (0)

**Query** GET /call?item= `O=S(=O)(O)CCCS(=O)(=O)O` returns the recorded outcome of this test.
**Result** false (0)

**Query** GET /call?item= `C[C@H](CCC(=O)O)[C@H]1CC[C@H]2[C@@H]3CC[C@@H]4C[C@H](O)CC[C@]4(C)[C@H]3C[C@H](O)[C@]12C` returns the recorded outcome of this test.
**Result** false (0)

**Query** GET /call?item= `O=P(O)(O)OC[C@H]1O[C@](O)(COP(=O)(O)O)[C@@H](O)[C@@H]1O` returns the recorded outcome of this test.
**Result** false (0)

**Query** GET /call?item= `FCOC(C(F)(F)F)C(F)(F)F` returns the recorded outcome of this test.
**Result** false (0)

**Query** GET /call?item= `OCC1(CO)COC(C(Cl)(Cl)Cl)OC1` returns the recorded outcome of this test.
**Result** false (0)

**Query** GET /call?item= `NC(=O)[C@@H]1CCCN1C(=O)[C@H](Cc1cnc[nH]1)NC(=O)[C@@H]1CCC(=O)N1` returns the recorded outcome of this test.
**Result** false (0)

**Query** GET /call?item= `COC(=O)[C@@H](N)CS` returns the recorded outcome of this test.
**Result** false (0)

---

# Test system: SC27B
# assay.overview: qHTS profiling for inhibitors of Plasmodium falciparum proliferation (AID 504749); also: nearly all actives have a fitted effect of over 60% in size
# condition.details: P. falciparum in erythrocytes, SYBR Green DNA, 72 h; series mostly up to 28.7 µM
Results filed as inconclusive are left out. The source made the active and inactive calls. The call rests on the fitted dose curve; in most records, active means well fitted inhibition curve with a large enough effect; inconclusive means small, poorly fitted or top-dose-only effect; inactive means flat fitted curve, though single readings scatter.
Allowed answers: active, inactive

Solved entries:
**Query** GET /call?item= `O=P(O)(O)CP(=O)(O)O` returns the recorded outcome of this test.
**Result** inactive

**Query** GET /call?item= COc1cc(NCCCC(C)N)c2ncccc2c1 (stereo not given) returns the recorded outcome of this test.
**Result** active

**Query** GET /call?item= `CC(C)O` returns the recorded outcome of this test.
**Result** inactive

Further cases:
**Query** GET /call?item= `Cn1cc(NC(=O)c2cc(NC(=O)c3cc(NC=O)cn3C)cn2C)cc1C(=O)NCCC(=N)N` returns the recorded outcome of this test.
**Result** active

**Query** GET /call?item= `CC(C)OC(=O)Nc1ccc2nc(-c3cscn3)[nH]c2c1` returns the recorded outcome of this test.
**Result** inactive

**Query** GET /call?item= CCC(C(=O)NC(N)=O)c1ccccc1 (stereo not given) returns the recorded outcome of this test.
**Result** inactive

**Query** GET /call?item= CC(C)c1nc(N(C)S(C)(=O)=O)nc(-c2ccc(F)cc2)c1/C=C/C(O)CC(O)CC(=O)O (stereo not given) returns the recorded outcome of this test.
**Result** inactive

**Query** GET /call?item= `Oc1cc(O)cc(O)c1` returns the recorded outcome of this test.
**Result** inactive

**Query** GET /call?item= `O=C(NNCS(=O)(=O)O)c1ccncc1` returns the recorded outcome of this test.
**Result** inactive

**Query** GET /call?item= `Cc1cc(=O)c(C(=O)N[C@@H](C(=O)N[C@@H]2C(=O)N3C(C(=O)O)=C(CSc4nnnn4C)CS[C@H]23)c2ccc(O)cc2)c[nH]1` returns the recorded outcome of this test.
**Result** inactive

**Query** GET /call?item= `O=C(OCc1ccccc1)c1ccc(O)cc1` returns the recorded outcome of this test.
**Result** inactive

**Query** GET /call?item= `N=C(N)n1cccn1` returns the recorded outcome of this test.
**Result** inactive

**Query** GET /call?item= C=CC(C)(O)CC/C=C(\C)CCC=C(C)C (stereo not given) returns the recorded outcome of this test.
**Result** inactive

**Query** GET /call?item= `NCC[C@H](O)C(=O)N[C@@H]1C[C@H](N)[C@@H](O[C@H]2O[C@H](CN)CC[C@H]2N)[C@H](O)[C@H]1O[C@H]1O[C@H](CO)[C@@H](O)[C@H](N)[C@H]1O` returns the recorded outcome of this test.
**Result** inactive

**Query** GET /call?item= CC(C)NCC(O)COc1ccccc1-n1cccc1 (stereo not given) returns the recorded outcome of this test.
**Result** inactive

**Query** GET /call?item= `CC(=O)Nc1ccc(OC(=O)c2ccccc2O)cc1` returns the recorded outcome of this test.
**Result** inactive

Values from PubChem BioAssay (NCATS)
